- Test system: Huh-9B
- Protocol Text: Toxicity determination on the tox plate by methylene blue staining
- Assay type: cell-based
- Experimental Conditions: Huh-9B cells, parallel tox plate
Measure Name: Replicon TD50

Reference set, count: 5
Smiles Text	Replicon TD50
c1nc(Nc2ccc(-n3cncn3)cc2)c2cc(-c3ccc4c(c3)OCCO4)ccc2n1	** (** >25 μM)
COc1cc2c(Nc3ccc(-n4cncn4)cc3)ncnc2cc1OCCCN1CCOCC1	** (** >25 μM)
Fc1cc(-c2ccc3ncnc(Nc4ccc(-n5cncn5)cc4)c3c2)ccc1OCCCN1CCCC1	* (* <25 μM)
c1cc(COc2ccc(-c3ccc4ncnc(Nc5ccc(-n6cncn6)cc5)c4c3)cc2)ccn1	* (* <25 μM)
Fc1cc(-c2ccc3ncnc(Nc4ccc(-n5cncn5)cc4)c3c2)ccc1OCCCN1CCOCC1	* (* <25 μM)

Query block: # return Replicon TD50 for COc1ccc(-c2ccc3ncnc(Nc4ccc(-n5cncn5)cc4)c3c2)cc1OC(C)C , test system: Huh-9B
Result block: * (* <25 μM)

Query block: # return Replicon TD50 for CCOc1ccc(-c2ccc3ncnc(Nc4ccc(-n5cncn5)cc4)c3c2)cc1OCC , test system: Huh-9B
Result block: ** (** >25 μM)

Query block: # return Replicon TD50 for COc1cc2c(Nc3ccc(-n4cncn4)cc3)ncnc2cc1OCCCCl , test system: Huh-9B
Result block: ** (** >25 μM)

---

- Target: HCV replicon 1b (Huh-9B)
- Protocol Text: HCV replicon activity, luciferase detection on the replicon plate
- Type: cell-based, HCV genotype 1b
- Experimental Conditions: Huh-9B replicon cells, luciferase signal
Collected IC50 values appear next to each entry.

Reference set, count: 2
Smiles Text	IC50
c1coc(-c2ccc3ncnc(Nc4ccc(-n5cncn5)cc4)c3c2)c1	< 5 µM
c1nc(Nc2ccc(-n3cncn3)cc2)c2cc(-c3ccc(N4CCOCC4)cc3)ccc2n1	< 5 µM

Query block: Write down IC50 measured for item c1cc(COc2ccc(-c3ccc4ncnc(Nc5ccc(-n6cncn6)cc5)c4c3)cc2)ccn1
Result block: 5 to 20 µM

Query block: Write down IC50 measured for item Cc1cc(-n2cncn2)ccc1Nc1ncnc2ccc(Br)cc12
Result block: < 5 µM

---

- Test system: HCV replicon 1b
- Protocol Text: ELISA, combined effect of HCV replication inhibitor with interferon αA
- Assay type: cell-based
- Experimental Conditions: Hepatitis C virus; compound alone; read-out: ELISA IC50 against HCV replicon 1b
Measure Name: pIC50
# reply with the number alone; pIC50 is -log10 of concentration in mol/L

Query block: Write down pIC50 measured for item COc1ccc(-c2ccc3ncnc(Nc4ccc(-n5cncn5)cc4)c3c2)cc1OC [Example 10]
Result block: 6.70

---

- System: Huh-9B
- Protocol Text: Toxicity determination on the tox plate by methylene blue staining
- Assay type: cell-based
- Experimental Conditions: Huh-9B cells, parallel tox plate
Measure Name: Replicon TD50

Reference set, count: 5
Compound	Value Reported
COCCOc1ccc(-c2ccc3ncnc(Nc4ccc(-n5nc(C(=O)N6CCN(C)CC6)nc5C)cc4)c3c2)cc1F [Example 34]	** (** >25 μM)
c1csc(-c2ccc3ncnc(Nc4ccc(-n5cncn5)cc4)c3c2)c1 [Example 17]	** (** >25 μM)
COc1ccc(-c2ccc3ncnc(Nc4ccc(-n5cncn5)cc4C)c3c2)cc1OC [Example 27]	* (* <25 μM)
Ic1ccc2ncnc(Nc3ccc(-n4cncn4)cc3)c2c1 [Example 1]	* (* <25 μM)
c1coc(-c2ccc3ncnc(Nc4ccc(-n5cncn5)cc4)c3c2)c1 [Example 19]	** (** >25 μM)

Query block: Write down Replicon TD50 measured for item c1nc(Nc2ccc(-n3cncn3)cc2)c2cc(-c3ccc(N4CCOCC4)cc3)ccc2n1 [Example 14]
Result block: * (* <25 μM)

Query block: Write down Replicon TD50 measured for item CN(C)CCOc1ccc(-c2ccc3ncnc(Nc4ccc(-n5cncn5)cc4)c3c2)cc1F [Example 20]
Result block: * (* <25 μM)

Query block: Write down Replicon TD50 measured for item CCOc1ccc(-c2ccc3ncnc(Nc4ccc(-n5cncn5)cc4)c3c2)cc1F [Example 8]
Result block: ** (** >25 μM)
